Entries and their measured Drug uptake follow.
# Test system: Blood
# Experiment: Biodistribution in blood of C57BL/6 mouse bearing mouse B16-F0 cells at 0.74 to 0.92 MBq, iv after 3 hrs
# Assay type: ADME, organism-based
# Measurement context: in vivo
Reply with the number, then its unit.

Example results:
query: Form entry - test system: Blood; read-out: Drug uptake; compound: `CCN(CC)CCNC(=O)c1ccc2cncc([125I])c2n1.Cl.Cl`
result: 1.88 % ID/g

query: Form entry - test system: Blood; read-out: Drug uptake; compound: `CCN(CC)CCNC(=O)c1cc2c([125I])cccc2cn1.Cl.Cl`
result: 2.65 % ID/g

query: Form entry - test system: Blood; read-out: Drug uptake; compound: `CCN(CC)CCNC(=O)c1cc2cc([125I])ccc2[nH]1.Cl`
result: 0.79 % ID/g

query: Form entry - test system: Blood; read-out: Drug uptake; compound: `CCN(CC)CCNC(=O)c1cc2cc([125I])ccc2o1.Cl`
result: 1.91 % ID/g

query: Form entry - test system: Blood; read-out: Drug uptake; compound: `CCN(CC)CCNC(=O)c1cnc2cc([125I])ccc2n1.Cl.Cl`
result: 2.91 % ID/g

Others:
query: Form entry - test system: Blood; read-out: Drug uptake; compound: `CCN(CC)CCNC(=O)c1ccc2cc([125I])ccc2c1.Cl`
result: 1.77 % ID/g

query: Form entry - test system: Blood; read-out: Drug uptake; compound: `CCN(CC)CCNC(=O)c1c[nH]c2ccc([125I])cc2c1=O.Cl.Cl`
result: 0.23 % ID/g

query: Form entry - test system: Blood; read-out: Drug uptake; compound: `CCN(CC)CCNC(=O)c1nc2cc([125I])ccc2[nH]1.Cl.Cl`
result: 1.33 % ID/g

query: Form entry - test system: Blood; read-out: Drug uptake; compound: `CCN(CC)CCNC(=O)c1ccc2cc([125I])ccc2n1.Cl.Cl`
result: 5.57 % ID/g

query: Form entry - test system: Blood; read-out: Drug uptake; compound: `CCN(CC)CCNC(=O)c1ccc([125I])nc1.Cl.Cl`
result: 4.22 % ID/g

###

Entries and their measured Drug uptake follow.
# Test system: Lung
# Experiment: Biodistribution in lung of C57BL/6 mouse bearing mouse B16-F0 cells at 0.74 to 0.92 MBq, iv after 6 hrs
# Assay type: ADME, organism-based
# Measurement context: in vivo
Reply with the number, then its unit.

query: Form field: reported Drug uptake of `CCN(CC)CCNC(=O)c1cc2cc([125I])ccc2o1.Cl`
result: 1.45 % ID/g

query: Form field: reported Drug uptake of `CCN(CC)CCNC(=O)c1ccc([125I])nc1.Cl.Cl`
result: 3.21 % ID/g

query: Form field: reported Drug uptake of `CCN(CC)CCNC(=O)c1cc2cc([125I])ccc2[nH]1.Cl`
result: 1.7 % ID/g

query: Form field: reported Drug uptake of `CCN(CC)CCNC(=O)c1cc2c([125I])cccc2cn1.Cl.Cl`
result: 2.05 % ID/g

Others:
query: Form field: reported Drug uptake of `CCN(CC)CCNC(=O)c1ccc2cc([125I])ccc2c1.Cl`
result: 2.12 % ID/g

query: Form field: reported Drug uptake of `CCN(CC)CCNC(=O)c1ccc2cncc([125I])c2n1.Cl.Cl`
result: 1.26 % ID/g

query: Form field: reported Drug uptake of `CCN(CC)CCNC(=O)c1cnc2cc([125I])ccc2n1.Cl.Cl`
result: 4.46 % ID/g

query: Form field: reported Drug uptake of `CCN(CC)CCNC(=O)c1ccc2cc([125I])ccc2n1.Cl.Cl`
result: 5.32 % ID/g

query: Form field: reported Drug uptake of `CCN(CC)CCNC(=O)c1c[nH]c2ccc([125I])cc2c1=O.Cl.Cl`
result: 0.15 % ID/g

Origin of values: ChEMBL document CHEMBL1150393
